biological target: T1, human IL-17A (human, UniProt Q16552 24-155); test: SPR Biacore, captured binder
T1 construct: Purified recombinant; biotinylated in the ELISA; also called HuIL-17A; Hu IL-17A
T1 sequence (Q16552 24-155 limits assumed): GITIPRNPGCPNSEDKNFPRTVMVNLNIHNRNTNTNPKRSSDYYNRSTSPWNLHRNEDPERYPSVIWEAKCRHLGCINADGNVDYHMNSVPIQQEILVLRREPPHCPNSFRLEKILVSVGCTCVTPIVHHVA
Some binders, each annotated with its measured kon.

binder	kon / M⁻¹ s⁻¹
IL17-G9-1 (antibody, V domains shown) VH: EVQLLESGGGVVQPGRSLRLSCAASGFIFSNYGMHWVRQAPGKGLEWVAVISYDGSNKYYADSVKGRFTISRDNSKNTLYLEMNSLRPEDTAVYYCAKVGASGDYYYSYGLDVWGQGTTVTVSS VL: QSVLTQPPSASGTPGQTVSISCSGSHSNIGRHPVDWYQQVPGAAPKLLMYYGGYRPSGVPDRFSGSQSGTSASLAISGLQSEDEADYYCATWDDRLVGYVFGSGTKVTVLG	408000
IL17-TN-L7-G9 (antibody, V domains shown, Fully human antibody) VH: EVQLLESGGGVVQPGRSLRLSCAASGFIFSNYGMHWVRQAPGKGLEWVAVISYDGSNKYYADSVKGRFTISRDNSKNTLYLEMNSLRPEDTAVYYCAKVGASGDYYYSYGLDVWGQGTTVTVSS VL: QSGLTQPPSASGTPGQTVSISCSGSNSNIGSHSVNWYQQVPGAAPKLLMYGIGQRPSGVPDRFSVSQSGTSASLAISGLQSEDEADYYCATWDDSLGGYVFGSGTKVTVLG	309000
